- assayedTarget: HLA B*5802 (Homo sapiens, UniProt P01889, A329T/C349S/D201E/D98Y/E176V/E187L/E204Q/E69T/G107R/I218V/I90N/K202T/L105A/N104I/N87E/Q89R/Q94S/R106L/R155S/R180L/R86G/S101N/S121W/S35A/S48A/V127L/V306I/V36M/Y140S/Y91M)
- Assay type: binding
metricName: Normalized average relative binding affinity (ARB), HLA B*5802

Sample records with Normalized average relative binding affinity (ARB), HLA B*5802:
1. XXAXXXXXX [3064.0041] ... 0.047
2. FXXXXXXXX [3064.0005] ... 0.081
3. CXXXXXXXX [3064.0002] ... 0.048

# input Supply Normalized average relative binding affinity (ARB), HLA B*5802 value. Item: IXXXXXXXX [3064.0008]
# output 0.17

# input Supply Normalized average relative binding affinity (ARB), HLA B*5802 value. Item: XQXXXXXXX [3064.0034]
# output 0.21

# input Supply Normalized average relative binding affinity (ARB), HLA B*5802 value. Item: WXXXXXXXX [3064.0019]
# output 0.11

# input Supply Normalized average relative binding affinity (ARB), HLA B*5802 value. Item: XYXXXXXXX [3064.0040]
# output 0.030

# input Supply Normalized average relative binding affinity (ARB), HLA B*5802 value. Item: XXRXXXXXX [3064.0055]
# output 0.38
